Every entry's value here was drawn from ChEMBL document CHEMBL1201862.

# Test system: MCF7
# protocol description: NCI tumour cell line growth inhibition, 48 h
The source made the active and inactive calls. Cut-off read from the data, not from the text of the source: active = GI50 up to about 1.1 µM and inactive = higher.
Answer each item with its documented GI50.

The cases that follow already have their GI50 on record.
>>> print(df.to_string())
                                   compound          measurement
0  Cc1cn([C@H]2CN(O)C[C@@H](CO)O2)c(=O)[nH]c1=O  > 100 µM (inactive)
1     COc1c(O)cc2c(c1O)C(=O)C1=C(CCCC1)C2=O   33.9 µM (inactive)
2  Cc1cn2c(/C=C3/C(=O)Nc4cccc(Cl)c43)c(Cl)nc2s1  > 100 µM (inactive)
3  Cc1sc2nc3n(c(=O)c2c1C)N=CN(c1ccc(F)cc1)C3  > 100 µM (inactive)
4       O=Cc1ccc(-c2cccc([N+](=O)[O-])c2)s1  > 100 µM (inactive)
5  CCCC(O)C(NC(=O)CCl)C(=O)O (centres undefined)  > 100 µM (inactive)

Working through the 2 compounds below one at a time, give GI50 for each.
1. Nc1ncnc2c1ncn2C1OC(COC2C(CO)OC(OC(C(=O)O)C(O)C(OP(=O)(O)O)C(O)C(=O)O)C(O)C2O)C(O)C1O (centres undefined)
2. Cc1ccc(Nc2n[nH]c(=S)s2)cc1C

1: > 100 µM (inactive); 2: 90.4 µM (inactive)

Recorded GI50 for C[C@]12CC[C@@H]3c4ccc(OC(=O)c5ccccc5)cc4CC[C@H]3[C@@H]1CC[C@@H]2Oc1c2ccccc2nc2ccccc12 , please?
17 µM (inactive)

###

Exercise: for every item that follows, state its recorded GI50.
# Tested on: SK-MEL-28
# protocol description: NCI tumour cell line growth inhibition, 48 h
Activity calls are given as the source filed them. Cut-off read from the data, not from the text of the source: active = GI50 up to about 1.1 µM and inactive = higher.

Worked examples follow.
>>> df
                                   compound  measured_quantity         measurement
0  COc1ccc(-c2cc(O)c3cc4c(cc3n2)OCO4)c(OC)c1OC               GI50  96.6 µM (inactive)
1                        Cc1ncc(CI)c(CI)c1O               GI50    18 µM (inactive)
2       COc1cc2oc(=O)cc(C)c2cc1[N+](=O)[O-]               GI50  22.6 µM (inactive)

Batch lookup, GI50 per entry.
1. CC1=C/C(=N\O)C(C(O)(C(F)(F)F)C(F)(F)F)C(C)(C)C1 (stereo unspecified)
2. Cc1cc2c(cc1Cl)S(=O)(=O)OC(c1ccc([N+](=O)[O-])cc1)=N2
3. N#Cc1c(-c2ccc(Cl)cc2)c2c([nH]c1=O)-c1ccccc1SC2
4. COC1(OC)C2(Cl)C(Cl)=C(Cl)C1(Cl)C1C=CC=CC12 (stereo unspecified)

1: > 10 µM (inactive); 2: > 100 µM (inactive); 3: > 100 µM (inactive); 4: > 100 µM (inactive)

# batch: return GI50 for each of the 2 compounds below
1. CO/C(=N\N=C(/C)C(F)(F)F)c1ccncc1
2. COc1ccccc1-c1c(C#N)c(N)[nH]c(=S)c1C#N

> 100 µM (inactive)
71.6 µM (inactive)

Kindly give each listed record's GI50.
1. CCN1C(=O)CS/C1=N/NC(=O)C(O)(c1ccccc1)C1C=CC=CC1 (stereo unspecified)
2. Nc1ccc2c3c1cccc3c(=O)n1c3ccc(Cc4ccc5c(c4)nc4c6ccc(N)c7cccc(c(=O)n54)c76)cc3nc21

["> 10 µM (inactive)", "> 100 µM (inactive)"]
